From: patent US9278942B2

- System: human AR (Homo sapiens)
- Construct: expressed in transfected cells; host or cells: COS-1
- Sequence (P10275 whole entry): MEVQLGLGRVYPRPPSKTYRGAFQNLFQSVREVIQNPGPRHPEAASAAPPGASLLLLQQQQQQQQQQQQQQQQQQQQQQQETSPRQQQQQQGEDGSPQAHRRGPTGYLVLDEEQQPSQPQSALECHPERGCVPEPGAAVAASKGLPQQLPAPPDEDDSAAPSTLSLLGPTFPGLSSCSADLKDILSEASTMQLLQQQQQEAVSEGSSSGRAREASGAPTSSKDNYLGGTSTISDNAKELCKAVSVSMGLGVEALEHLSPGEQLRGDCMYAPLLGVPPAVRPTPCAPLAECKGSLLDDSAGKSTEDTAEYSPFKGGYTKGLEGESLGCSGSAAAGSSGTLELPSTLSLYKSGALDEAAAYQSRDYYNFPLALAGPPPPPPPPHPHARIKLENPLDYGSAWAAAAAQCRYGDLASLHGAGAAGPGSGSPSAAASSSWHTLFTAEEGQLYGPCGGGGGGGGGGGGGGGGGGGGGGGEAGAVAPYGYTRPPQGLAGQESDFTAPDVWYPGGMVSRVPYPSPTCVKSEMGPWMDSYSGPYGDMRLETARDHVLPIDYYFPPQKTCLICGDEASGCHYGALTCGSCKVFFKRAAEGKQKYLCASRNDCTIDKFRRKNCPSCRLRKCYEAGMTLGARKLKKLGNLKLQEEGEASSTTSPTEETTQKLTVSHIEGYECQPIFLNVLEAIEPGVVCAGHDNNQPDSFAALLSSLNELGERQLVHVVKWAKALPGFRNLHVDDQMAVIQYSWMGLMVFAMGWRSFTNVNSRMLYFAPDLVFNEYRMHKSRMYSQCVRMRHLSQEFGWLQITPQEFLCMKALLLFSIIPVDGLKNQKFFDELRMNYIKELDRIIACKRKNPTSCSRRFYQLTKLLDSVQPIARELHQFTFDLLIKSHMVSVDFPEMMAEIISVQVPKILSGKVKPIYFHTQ
- Experimental Details: Competitive AR binding assay against [3H]-R1881 in transiently transfected COS-1 cells
- Condition Summary: Table 3; compound 13.4 μM; [3H]-R1881 1.34 nM; complete inhibition equals 100%; read-out: Inhibition of [3H]-R1881 binding at 1.34 nM ± S.D.
Measured Property: inhibition at 13.4 µM (%)

N#Cc1ccc(C2=NOC3CCCC23)c(C(F)(F)F)c1 (centres unmarked) [Example 86ab]; 91.7
N#Cc1cccc(C2=NOC3CCCCCC23)c1C(F)(F)F (centres unmarked) [Example 95a]; 96.2
Fc1ccc(C2=NOC3CCCC23)c(C(F)(F)F)c1 (centres unmarked) [Example 20a]; 89.3
N#Cc1cccc(C2=NOC3CCCCC23)c1C(F)(F)F (single isomer, unassigned) [Example 94a]; 97.4
O=[N+]([O-])c1ccc(C2=NOC3CCCCCC23)c(C(F)(F)F)c1 (centres unmarked) [Example 42a]; 91.4
O=[N+]([O-])c1ccc(C2=NOC3CCCCCCC23)c(C(F)(F)F)c1 (centres unmarked) [Example 46a]; 86.4
CC(C)(O)C(=O)Nc1ccc([N+](=O)[O-])c(C(F)(F)F)c1 [Hydroxyflutamide, reference compound]; 95.2
N#Cc1ccc(C2=NOC3CCCCCCC23)c(C(F)(F)F)c1 (single isomer, unassigned) [Example 93a]; 87.2
O=[N+]([O-])c1ccc(C2=NOC3CCCC23)c(C(F)(F)F)c1 (centres unmarked) [Example 22ab]; 89.3
Fc1ccc(C2=NOC3CCCCCCC23)c(C(F)(F)F)c1 (centres unmarked) [Example 44a]; 90.3
O=[N+]([O-])c1ccc(C2=NOC3CCCCCCC23)cc1C(F)(F)F (centres unmarked) [Example 45ab]; 85.7

----------
- System: human AR (Homo sapiens)
- Construct: expressed in transfected cells; host or cells: COS-1
- Experimental Details: Competitive AR binding assay against [3H]-R1881 in transiently transfected COS-1 cells
- Condition Summary: Table 3; compound 13.4 μM; [3H]-R1881 1.34 nM; complete inhibition equals 100%
- Procedure: Competitive AR Binding Assay. AR binding was measured by a competitive assay against [^3H]-R1881 (PerkinElmer) in transiently transfected COS-1 cells. […] The cell pellets were dissolved to 50 μl of 0.5M NaOH and incubated for 15 min at 56° C., after which the samples (three replicates for each sample compound) were transferred to liquid twinkle tubes with 3 ml of OptiPhase HiSafe 3 twinkle solution (PerkinElmer) and radioactivity of AR-bound [^3H]-R1881 determined. […]
Measured Property: Inhibition of [3H]-R1881 binding at 1.34 nM ± S.D. (%)

N#Cc1ccc(C2=NOC3CCCCCCC23)c(C(F)(F)F)c1 (single isomer, unassigned) [Example 93b]; 76.0
O=[N+]([O-])c1ccc(C2=NOC3CCCCCCC23)c(C(F)(F)F)c1 (stereo not drawn) [Example 46b]; 90.4
Fc1ccc(C2=NOC3CCCCCCC23)c(C(F)(F)F)c1 (stereo not drawn) [Example 44b]; 85.2
O=[N+]([O-])c1ccc(C2=NOC3CCCCCC23)c(C(F)(F)F)c1 (stereo not drawn) [Example 42b]; 89.3
Fc1ccc(C2=NOC3CCCC23)c(C(F)(F)F)c1 (stereo not drawn) [Example 20b]; 85.3
O=[N+]([O-])c1ccc(C2=NOC3CCCC23)cc1C(F)(F)F (single isomer, unassigned) [Example 21a]; 69.7
N#Cc1cccc(C2=NOC3CCCCC23)c1C(F)(F)F (single isomer, unassigned) [Example 94b]; 97.6
O=[N+]([O-])c1ccc(C2=NOC3CCCC23)cc1C(F)(F)F (single isomer, unassigned) [Example 21b]; 90.9
N#Cc1cccc(C2=NOC3CCCCCC23)c1C(F)(F)F (stereo not drawn) [Example 95b]; 98.1
